# Test system: Streptococcus pyogenes SSI-9
# MEASUREMENT PROTOCOL: Antibacterial activity assay of bead-derived peptides (three concentrations)
# Assay type: cell-based
# Design: key: +++: inhibition by the 640-fold diluted peptide solution; ++: inhibition by the 160-fold diluted solution; +: inhibition by the 40-fold diluted solution; -: no inhibition
# CONDITION NOTES: S. pyogenes, bead-derived peptide solution, three concentrations
Where a SMILES comes first, the peptide text is derived from it. [ ]: non-standard residue; d: D form. The star is where a group is joined. NHCH2CH2OH = OCCN*; For = O=C*
MEASUREMENT NAME: antibacterial activity

input: Look up antibacterial activity for this molecule: CC(C)C[C@@H](NC(=O)[C@H](C)NC(=O)[C@H](NC(=O)[C@H](C)NC(=O)CNC(=O)[C@@H](NC=O)C(C)C)C(C)C)C(=O)N[C@H](C(=O)N[C@@H](C(=O)N[C@@H](Cc1c[nH]c2ccccc12)C(=O)N[C@@H](C(=O)N[C@@H](Cc1c[nH]c2ccccc12)C(=O)N[C@H](CC(C)C)C(=O)N[C@@H](Cc1c[nH]c2ccccc12)C(=O)N[C@@H](C(=O)N[C@@H](Cc1c[nH]c2ccccc12)C(=O)NCCO)C(C)C)C(C)C)C(C)C)C(C)C [compound 11268] (For-VGA[dV]A[dL]V[dV]W[dV]W[dL]W[dV]W-NHCH2CH2OH)
output: +

input: Quick one: antibacterial activity for CC(C)C[C@@H](NC(=O)[C@H](C)NC(=O)[C@H](NC(=O)[C@H](C)NC(=O)CNC(=O)[C@@H](NC=O)C(C)C)C(C)C)C(=O)N[C@H](C(=O)N[C@@H](C(=O)N[C@@H](Cc1c[nH]c2ccccc12)C(=O)N[C@@H](C(=O)N[C@@H](Cc1c[nH]c2ccccc12)C(=O)N[C@@H](C(=O)N[C@@H](Cc1c[nH]c2ccccc12)C(=O)N[C@@H](C(=O)N[C@@H](Cc1c[nH]c2ccccc12)C(=O)NCCO)C(C)C)C(C)C)C(C)C)[C@H](C)O)C(C)C [compound 12283] (For-VGA[dV]A[dL]V[dT]W[dV]W[dV]W[dV]W-NHCH2CH2OH) ?
output: -

---

# Test system: Streptococcus pyogenes SSI-9
# MEASUREMENT PROTOCOL: Antibacterial activity assay of bead-derived peptides (three concentrations)
# Assay type: cell-based
# Set-up: key: +++: inhibition by the 640-fold diluted peptide solution; ++: inhibition by the 160-fold diluted solution; +: inhibition by the 40-fold diluted solution; -: no inhibition
# CONDITION NOTES: S. pyogenes, bead-derived peptide solution, three concentrations
Where a SMILES comes first, the peptide text is derived from it. [ ]: non-standard residue; d: D form. The star is where a group is joined. NHCH2CH2OH = OCCN*; For = O=C*
MEASUREMENT NAME: antibacterial activity

input: Fill in the blank: the reported antibacterial activity of CNC(=O)C[C@@H](NC(=O)[C@H](Cc1c[nH]c2ccccc12)NC(=O)[C@@H](CC(C)C)NC(=O)[C@H](Cc1c[nH]c2ccccc12)NC(=O)[C@@H](CC(C)C)NC(=O)[C@H](Cc1c[nH]c2ccccc12)NC(=O)[C@H](NC(=O)[C@@H](NC(=O)[C@H](NC(=O)[C@H](C)NC(=O)[C@H](NC(=O)[C@H](C)NC(=O)CNC(=O)[C@@H](NC=O)C(C)C)C(C)C)C(C)C)C(C)C)C(C)C)C(=O)N[C@@H](Cc1c[nH]c2ccccc12)C(=O)NCCO [compound 7049] (For-VGA[dV]A[dV]V[dV]W[dL]W[dL]W[dD](NHMe)W-NHCH2CH2OH) is ____.
output: -

input: So what's the measured antibacterial activity for this one? CNC(=O)C[C@@H](NC(=O)[C@@H](NC(=O)[C@@H](CC(C)C)NC(=O)[C@H](C)NC(=O)[C@@H](CC(C)C)NC(=O)[C@H](C)NC(=O)CNC(=O)[C@@H](NC=O)C(C)C)C(C)C)C(=O)N[C@@H](Cc1c[nH]c2ccccc12)C(=O)N[C@H](CC(C)C)C(=O)N[C@@H](Cc1c[nH]c2ccccc12)C(=O)N[C@H](CC(C)C)C(=O)N[C@@H](Cc1c[nH]c2ccccc12)C(=O)N[C@@H](C(=O)N[C@@H](Cc1c[nH]c2ccccc12)C(=O)NCCO)[C@H](C)O [compound 638] (For-VGA[dL]A[dL]V[dD](NHMe)W[dL]W[dL]W[dT]W-NHCH2CH2OH)
output: -
